Reported ELISA (A450) values follow for various binders
Target: T1, Human CD3 epsilon (CD3epsilon) protein (His Tag) (human, UniProt P07766 23-126)
T1 construct: extracellular domain; Bought protein; also called recombinant human CD3epsilon ECD; not shown: His tag
T1 sequence (P07766 23-126): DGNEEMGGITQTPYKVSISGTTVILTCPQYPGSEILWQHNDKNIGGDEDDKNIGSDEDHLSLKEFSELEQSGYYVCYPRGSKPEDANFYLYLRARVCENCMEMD
Experiment: ELISA, antigen coated on plate
Give the value in A450 but do not write A450 after it.

INSERT INTO assay_data (binder, assay_endpoint, result_value) VALUES
  ('WBP3311_2.482.5 (antibody, V domains shown, Mouse monoclonal antibody from hybridoma; also called W3311-2.482.5) VH: QVQLQQSGPELVKPGSSVKISCKPSGYTFTTYYIHWVKQRPGQGLEWIGWIFPGSDNIKYNENFKDKATLTADTSSSTAYMQLSSLTSEDSAVYFCARDSVSRYYFDYWGQGTILTVSS VL: DIVMSQSPSSLAVSAGEKVTMSCKSSQSLVNDRTRKNYLAWYQQKPGLSPKLLIYWASTRESGVPDRFTGSGSGTDFTLTISSVQAEDLAVYYCAQSFILRTFGGGTKLEIK', 'ELISA (A450)', 2.95),
  ('WBP3311_2.306.4 (antibody, IgG2b, V domains shown, Mouse monoclonal antibody from hybridoma; also called W3311-2.306.4; W3311-2.306.4-mIgG2bK) VH: QVQLQQSGPELVKPGASVRISCKASGFAFTDYYIHWVKQRPGQGLEWIGWISPGNVNTKYNENFKGRATLTADLSSSTAYMQLSSLTSEDSAVYFCARDGYSLYYFDYWGQGTTLTVSS VL: DIVMSQSPSSLTVSAGEKVTMSCKSSQSLLNSRTRKNYLAWYQQKPGQSPKLLIYWASTRQSGVPDRFTGSGSGTAFTLTISGVQAEDLAVYFCTQSHTLRTFGGGTKLEIK', 'ELISA (A450)', 2.91);

Please examine the following record next.
WBP3311_2.844.8 (antibody, V domains shown, Mouse monoclonal antibody from hybridoma; also called W3311-2.844.8; clone 2.844.8) VH: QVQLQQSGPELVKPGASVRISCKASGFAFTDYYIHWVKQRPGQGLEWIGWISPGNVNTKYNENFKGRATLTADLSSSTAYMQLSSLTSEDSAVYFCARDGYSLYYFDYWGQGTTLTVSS VL: DIVMSQSPSSLTVSAGEKVTMSCKSSQSLLNSRTRKNYLAWYQQKPGQSPKLLIYWASTRESGVPDRFTGSGSGTAFTLTISGVQAEDLAVYFCTQSHTLRTFGGGTKLEIK has a reported ELISA (A450) of 2.92
